Recorded inhibition by entry
assay: TEAD-YAP interaction inhibition, primary screen, TEAD-YAP interaction inhibitor project, luminescence, HEK-TIYL cells (AID 1259422); conditions: TEAD-Gal4/YAP UAS-luciferase luminescence, at 9.12 µM, hits give high values;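 further: 0% = median of test compound wells and 100% = reference inhibitor wells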
In all, about 640,000 compounds went through this assay and about 9,300 (1.5%) were called active. The list comes from a sample in which actives are over-represented; it also holds close analogues and randomly drawn compounds.
Assay endpoint: inhibition (%)

* COCCNc1nc(-c2ccc(C)cc2)ccc1C(=O)N1CCN(C)CC1 | -12
* Brc1ccc2ncnc(NCc3cccnc3)c2c1 | 34.6
* OC(CN1CCN(c2ccccc2F)CC1)Cn1nnnc1-c1ccccc1 (stereo unspecified) | 2.32
* N#Cc1ccccc1S(=O)(=O)Nc1ccc(Cl)cc1 | 7.64
* CCC(=O)Nc1ccc(NC(=O)COc2ccc(Br)cc2)cc1C | 0.24
* O=C(Nc1ccc(Br)cn1)c1ccccc1Cl | -0.48
* COc1ccc(Nc2nc(N3CCCC3)nc(N3CCCC3)n2)cc1 | 1.54
* CCn1c(SCC(=O)N2CCc3ccccc32)nnc1-c1ccccc1 | -0.23
* Cc1ccc(S(=O)(=O)N2CCCC2C(=O)NCCO)cc1 (stereo unspecified) | -1.16
* CN1CCN(c2ncn(-c3ccc(Nc4nccc(-c5ccc(NS(C)(=O)=O)cc5)n4)cc3)n2)CC1 | -0.18
* CC(C)CCNS(=O)(=O)c1ccc2[nH]c3nc4nc(-c5ccc(Br)cc5)cn4nc3c2c1 | 6.91

###

assay: TEAD-YAP interaction inhibition, primary screen, TEAD-YAP interaction inhibitor project, luminescence, HEK-TIYL cells (AID 1259422); details: TEAD-Gal4/YAP UAS-luciferase luminescence, at 9.12 µM, hits give high values;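 further: 0% = median of test compound wells and 100% = reference inhibitor wells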
About 9,300 (1.5%) of roughly 640,000 compounds were called active. The full list was thinned out, with actives kept by preference.
Recorded inhibition by entry
Assay endpoint: inhibition (%)

• CN1/C(=C/C(=S)C(C)(C)C)Sc2ccccc21 = -12.6
• O=C(CN1C(=O)/C(=C/c2ccccc2)Sc2ccccc21)N1CCCC1 = -1.18
• CCOc1cc2c(cc1OCC)N(CC)/C(=C\C=O)S2 = -11.6
• CC(NS(=O)(=O)c1cc(Cl)ccc1Cl)C(=O)Nc1ccc2c(c1)OCCO2 (stereo unspecified) = -9.66
• O=C1c2ccccc2C(=O)N1CCC(=O)N1c2ccccc2Sc2ccccc21 = -5.51
• Cc1cc(/C=C2\Sc3ccccc3N2C)cc(C)[n+]1CCO = 73.5

###

assay: TEAD-YAP interaction inhibition, primary screen, TEAD-YAP interaction inhibitor project, luminescence, HEK-TIYL cells (AID 1259422); settings: TEAD-Gal4/YAP UAS-luciferase luminescence, at 9.12 µM, hits give high values;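 further: 0% = median of test compound wells and 100% = reference inhibitor wells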
The campaign covered roughly 640,000 compounds. About 9,300 (1.5%) were called active. This excerpt belongs to a sample that is enriched for actives.
Recorded inhibition by entry
Assay endpoint: inhibition (%)

- CNC(=O)c1ccccc1Nc1nc(Nc2ccc(-n3cnc(-c4ccc(C)nc4)n3)cc2)ncc1Cl: 8.52
- CC(C)N(CCNC(=O)c1ccnc(Nc2ccc(C(F)(F)F)cc2)c1)C(C)C: -16
- CCCn1c(=S)[nH]c2cc(C(=O)NCCN(CC)CC)ccc2c1=O: 12.2
- CCN(CC)CCNC(=O)c1ccc2c(=O)n(CCN(CC)CC)c(=S)[nH]c2c1: 18.8
- Cc1ccc2nc(-c3ccc(NC(=O)CCl)cc3)sc2c1: 32
